Assay Target: human transferrin receptor (hTfR) (Homo sapiens, UniProt P02786)
Construct: made in house
Sequence (P02786 89-760 limits assumed): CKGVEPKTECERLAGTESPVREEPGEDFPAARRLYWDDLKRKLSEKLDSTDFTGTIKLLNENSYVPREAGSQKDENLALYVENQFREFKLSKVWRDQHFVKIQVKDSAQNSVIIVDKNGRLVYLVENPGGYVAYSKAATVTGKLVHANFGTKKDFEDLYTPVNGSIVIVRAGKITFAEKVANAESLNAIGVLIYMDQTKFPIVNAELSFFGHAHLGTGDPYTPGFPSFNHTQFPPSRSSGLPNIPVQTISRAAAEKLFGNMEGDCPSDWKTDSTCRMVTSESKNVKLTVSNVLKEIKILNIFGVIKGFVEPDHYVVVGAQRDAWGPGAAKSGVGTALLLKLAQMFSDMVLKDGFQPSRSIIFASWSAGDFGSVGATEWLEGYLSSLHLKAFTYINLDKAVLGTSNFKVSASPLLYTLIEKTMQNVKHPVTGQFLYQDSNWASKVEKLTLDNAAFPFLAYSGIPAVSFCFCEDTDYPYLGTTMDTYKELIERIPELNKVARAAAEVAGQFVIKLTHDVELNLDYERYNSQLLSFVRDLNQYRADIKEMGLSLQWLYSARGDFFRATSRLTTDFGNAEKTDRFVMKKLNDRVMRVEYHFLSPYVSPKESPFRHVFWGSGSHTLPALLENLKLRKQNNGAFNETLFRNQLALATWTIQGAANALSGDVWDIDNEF
Test Description: Evaluation of molecular interaction between transferrin receptor (hTfR) and peptide using surface plasmon resonance (SPR)
Format: binding
Condition Notes: surface plasmon resonance, binding to hTfR; KD class symbol; read-out: SPR (KD value)
For each record, write down the corresponding Kd.

Using the record for "CC[C@H](C)[C@@H]1NC(=O)[C@H](Cc2ccc(OC)cc2)NC(=O)[C@H](Cc2ccc(O)cc2)NC(=O)[C@H](CC(N)=O)NC(=O)[C@H](Cc2cn(CC(=O)O)c3ccccc23)NC(=O)[C@H](C(C)C)NC(=O)[C@H](Cc2cccc(Cl)c2)N(C)C(=O)[C@H](C(C)C)NC(=O)[C@H](C)NC(=O)CSC[C@@H](C(=O)NCCOCCOCCOCCOCCC(N)=O)NC(=O)[C@H](Cc2ccc(O)cc2)N(C)C(=O)[C@H](Cc2ccccc2)NC(=O)[C@H](CCCNC(=N)N)NC(=O)[C@H](CCCNC(=N)N)NC(=O)[C@H]([C@@H](C)CC)NC1=O" , report its Kd.
< 1 nM

Consider the molecule "CC[C@H](C)[C@@H]1NC(=O)[C@H](Cc2ccc(OCC(=O)O)cc2)NC(=O)[C@H](Cc2ccc(N)nc2)NC(=O)[C@H](CC(N)=O)NC(=O)[C@H](Cc2cn(CC(=O)O)c3ccccc23)NC(=O)[C@H](C(C)C)NC(=O)[C@H](Cc2cccc(Cl)c2)N(C)C(=O)[C@H](C(C)C)NC(=O)[C@H](C)NC(=O)CSC[C@@H](C(=O)NCCOCCOCCOCCOCCC(N)=O)NC(=O)[C@H](Cc2ccc(O)cc2)N(C)C(=O)[C@H](Cc2ccncc2)NC(=O)[C@H](CCCNC(=N)N)NC(=O)[C@H](CCCNC(=N)N)NC(=O)[C@H]([C@@H](C)CC)NC1=O" and give its measured Kd.
1 to 100 nM

* * *

Assay Target: human transferrin receptor (hTfR) (Homo sapiens)
Construct: made in house
Test Description: Evaluation of molecular interaction between transferrin receptor (hTfR) and peptide using surface plasmon resonance (SPR)
Format: binding
Condition Notes: KD class for binding to hTfR by SPR; peptide with the linker shown in the same line; 'low signal indicates no activity'; read-out: SPR
Test Readout: Kd

Any idea what its Kd is? The compound is "CC[C@H](C)[C@@H]1NC(=O)[C@H](Cc2ccc(OC)cc2)NC(=O)[C@H](Cc2ccc(O)cc2)NC(=O)[C@H](CC(N)=O)NC(=O)[C@H](Cc2c[nH]c3ccccc23)NC(=O)[C@H](C(C)C)NC(=O)[C@H](Cc2cccc(Cl)c2)N(C)C(=O)[C@H](C(C)C)NC(=O)[C@H](C)NC(=O)CSC[C@@H](C(=O)NCCOCCOCCOCCOCCC(N)=O)NC(=O)[C@H](Cc2ccc(O)cc2)N(C)C(=O)[C@H](Cc2ccc(O)cc2)NC(=O)[C@H](CCCNC(=N)N)NC(=O)[C@H](CCCCN)NC(=O)[C@H]([C@@H](C)CC)NC1=O"
1 to 100 nM

* * *

Assay Target: human transferrin receptor (hTfR) (Homo sapiens, UniProt P02786)
Construct: made in house
Test Description: Evaluation of molecular interaction between transferrin receptor (hTfR) and peptide using surface plasmon resonance (SPR)
Type: binding
Condition Notes: surface plasmon resonance, binding to hTfR; KD class symbol; read-out: SPR (KD value)
Test Readout: Kd

Give the measured Kd of "CC[C@H](C)[C@@H]1NC(=O)[C@H](Cc2ccc(OCC(=O)O)cc2)NC(=O)[C@H](Cc2ccc(O)cc2)NC(=O)[C@H](CC(N)=O)NC(=O)[C@H](Cc2cn(CC(=O)O)c3ccccc23)NC(=O)[C@H](C(C)C)NC(=O)[C@H](Cc2ccccc2)N(C)C(=O)[C@H](C(C)C)NC(=O)[C@H](C)NC(=O)CSC[C@@H](C(=O)NCCOCCOCCOCCOCCC(N)=O)NC(=O)[C@H](Cc2ccc(O)cc2)N(C)C(=O)[C@H](Cc2ccc(O)cc2)NC(=O)[C@H](CCCNC(=N)N)NC(=O)[C@H](CCCNC(=N)N)NC(=O)[C@H]([C@@H](C)CC)NC1=O" .
1 to 100 nM

* * *

Assay Target: human transferrin receptor (hTfR) (Homo sapiens, UniProt P02786)
Construct: made in house
Test Description: Evaluation of molecular interaction between transferrin receptor (hTfR) and peptide using surface plasmon resonance (SPR)
Format: binding
Condition Notes: surface plasmon resonance, binding to hTfR; KD class symbol; read-out: SPR (KD value)
pKd: −log10 of the molar value.
Test Readout: pKd

Query pKd on human transferrin receptor (hTfR) (Homo sapiens, UniProt P02786) for "CC[C@H](C)[C@@H]1NC(=O)[C@H](Cc2ccc(O)cc2)NC(=O)[C@H](Cc2ccc(O)cc2)NC(=O)[C@H](CC(N)=O)NC(=O)[C@H](Cc2c[nH]c3ccc(Cl)cc23)NC(=O)[C@H](C(C)C)NC(=O)[C@H](Cc2ccc(F)cc2)N(C)C(=O)[C@H](C(C)C)NC(=O)[C@H](C)NC(=O)CSC[C@@H](C(=O)NCCOCCOCCOCCOCCC(N)=O)NC(=O)[C@H](Cc2ccc(O)cc2)N(C)C(=O)[C@H](Cc2ccccc2)NC(=O)[C@@H](CCCNC(=N)N)NC(=O)[C@H](CCCNC(=N)N)NC(=O)[C@H]([C@@H](C)CC)NC1=O"
7.00 to 9.00

Any idea what pKd came out for "CC[C@H](C)[C@@H]1NC(=O)[C@H](Cc2ccc(OCC(=O)O)cc2)NC(=O)[C@H](Cc2ccc(O)cc2)NC(=O)[C@H](CC(N)=O)NC(=O)[C@H](Cc2c[nH]c3ccccc23)NC(=O)[C@H](C(C)C)NC(=O)[C@H](Cc2cccc(Cl)c2)N(C)C(=O)[C@H](C(C)C)NC(=O)[C@H](C)NC(=O)CSC[C@@H](C(=O)NCCOCCOCCOCCOCCC(N)=O)NC(=O)[C@H](Cc2ccc(O)cc2)N(C)C(=O)[C@H](Cc2ccccc2)NC(=O)[C@H](CCCCN(C)C)NC(=O)[C@H](CCC(=O)NCCOCCOCCOCCOC)NC(=O)[C@H]([C@@H](C)CC)NC1=O" on human transferrin receptor (hTfR) (Homo sapiens, UniProt P02786)?
7.00 to 9.00

* * *

Assay Target: human transferrin receptor (hTfR) (Homo sapiens, UniProt P02786)
Construct: made in house
Test Description: Evaluation of molecular interaction between transferrin receptor (hTfR) and peptide using surface plasmon resonance (SPR)
Format: binding
Condition Notes: KD class for binding to hTfR by SPR; peptide with the linker shown in the same line; 'low signal indicates no activity'; read-out: SPR
Test Readout: Kd

Query (compound): "CC[C@H](C)[C@@H]1NC(=O)[C@H](Cc2ccc(OC)cc2)NC(=O)[C@H](Cc2ccc(O)cc2)NC(=O)[C@H](CC(N)=O)NC(=O)[C@H](Cc2cn(CC(=O)O)c3ccccc23)NC(=O)[C@H](C(C)C)NC(=O)[C@H](Cc2cccc(Cl)c2)N(C)C(=O)[C@H](C(C)C)NC(=O)[C@H](C)NC(=O)CSC[C@@H](C(=O)NCCOCCOCCOCCOCCC(N)=O)NC(=O)[C@H](Cc2ccc(O)cc2)N(C)C(=O)[C@H](Cc2cccc(C(=O)O)c2)NC(=O)[C@H](CCCNC(=N)N)NC(=O)[C@H](CCCNC(=N)N)NC(=O)[C@H]([C@@H](C)CC)NC1=O" ; field requested: Kd
1 to 100 nM

# input compound: "CC[C@H](C)[C@@H]1NC(=O)[C@H](Cc2ccc(OC)cc2)NC(=O)[C@H](Cc2ccc(N)nc2)NC(=O)[C@H](CC(N)=O)NC(=O)[C@H](Cc2c[nH]c3ccccc23)NC(=O)[C@H](C(C)C)NC(=O)[C@H](Cc2cccc(Cl)c2)N(C)C(=O)[C@H](C(C)C)NC(=O)[C@H](C)NC(=O)CSC[C@@H](C(=O)NCC(=O)N[C@@H](CCCCN=[N+]=[N-])C(N)=O)NC(=O)[C@H](Cc2ccc(O)cc2)N(C)C(=O)[C@H](Cc2ccncc2)NC(=O)[C@H](CCCNC(=N)N)NC(=O)[C@H](CCCNC(=N)N)NC(=O)[C@H]([C@@H](C)CC)NC1=O" ; wanted: its Kd
1 to 100 nM

Form field: reported Kd of "CC[C@H](C)[C@@H]1NC(=O)[C@H](Cc2ccc(O)cc2)NC(=O)[C@H](Cc2ccc(O)cc2)NC(=O)[C@H](C)NC(=O)[C@H](Cc2c[nH]c3ccccc23)NC(=O)[C@H](C(C)C)NC(=O)[C@H](Cc2ccccc2)N(C)C(=O)[C@H](C(C)C)NC(=O)[C@H](C)NC(=O)CSC[C@@H](C(=O)NCC(=O)N[C@@H](CCCCN=[N+]=[N-])C(N)=O)NC(=O)[C@H](Cc2ccc(O)cc2)N(C)C(=O)[C@H](Cc2ccc(O)cc2)NC(=O)[C@H](CCCNC(=N)N)NC(=O)[C@H](CCCNC(=N)N)NC(=O)[C@H]([C@@H](C)CC)NC1=O"
100 to 1000 nM

Endpoint output: Kd of "CC[C@H](C)[C@@H]1NC(=O)[C@H](Cc2ccc(OC)cc2)NC(=O)[C@H](Cc2ccc(O)cc2)NC(=O)[C@H](CC(N)=O)NC(=O)[C@H](Cc2c[nH]c3ccccc23)NC(=O)[C@H](C(C)C)NC(=O)[C@H](Cc2cccc(Cl)c2)N(C)C(=O)[C@H](C(C)C)NC(=O)[C@H](C)NC(=O)CSC[C@@H](C(=O)NCC(=O)N[C@@H](CCCCN=[N+]=[N-])C(N)=O)NC(=O)[C@H](Cc2ccc(O)cc2)N(C)C(=O)[C@H](Cc2ccc(O)cc2)NC(=O)[C@H](CCCNC(=N)N)NC(=O)[C@H](CCCCN)NC(=O)[C@H]([C@@H](C)CC)NC1=O" . Value?
1 to 100 nM
